# Test Name: Inhibition of Ca2+/CaM kinase II (unknown origin) assessed as inhibition constant
# Parameters: species or system Homo sapiens
Outcome Measure: Ki (µM)
One number for each entry, in µM.

Exercise: Item under review: "NCCCCCCNS(=O)(=O)c1cccc2c(Cl)cccc12" . Reported Ki?
Key: 7.5

---

# System: Calcium/calmodulin-dependent protein kinase type II subunit beta (Rattus norvegicus, UniProt P08413)
# Sequence (P08413 whole entry): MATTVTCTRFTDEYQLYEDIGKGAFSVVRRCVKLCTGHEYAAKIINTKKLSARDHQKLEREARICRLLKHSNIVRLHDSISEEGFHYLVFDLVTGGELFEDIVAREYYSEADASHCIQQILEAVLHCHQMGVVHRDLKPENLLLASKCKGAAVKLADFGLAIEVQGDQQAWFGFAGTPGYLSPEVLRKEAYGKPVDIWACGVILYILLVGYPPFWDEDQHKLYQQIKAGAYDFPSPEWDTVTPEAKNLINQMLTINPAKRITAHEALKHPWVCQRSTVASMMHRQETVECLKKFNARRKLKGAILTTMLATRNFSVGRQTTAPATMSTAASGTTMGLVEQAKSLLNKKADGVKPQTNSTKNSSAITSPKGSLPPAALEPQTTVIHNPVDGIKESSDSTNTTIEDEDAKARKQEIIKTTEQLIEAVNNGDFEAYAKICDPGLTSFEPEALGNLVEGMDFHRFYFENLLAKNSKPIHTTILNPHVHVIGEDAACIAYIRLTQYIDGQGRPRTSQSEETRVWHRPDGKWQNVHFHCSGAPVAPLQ
# Test Name: Inhibition of rat brain Ca2+/CaM kinase II beta subunit autophosphorylation measured after 2 mins in presence of [gamma-33P]ATP by SDS-PAGE analysis
Outcome Measure: IC50 (µM)
Give bare numbers, in µM.

Exercise: Item under review: "CN([C@@H](Cc1ccc(OS(=O)(=O)c2cccc3cnccc23)cc1)C(=O)N1CCN(c2ccccc2)CC1)S(=O)(=O)c1cccc2cnccc12" . Reported IC50?
Key: 1
